- experiment.description: chemical genetic growth profiling, strain panel (AID 1159580);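 also: tested at 20 µM; growth read once vehicle control cultures reached saturation at 30 °C; 1 = growth at the plate median or of vehicle wells; lower values mean less growth of the strain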
- condition.label: S. cerevisiae deletion strains, growth OD, locus YIL066C, strain RNR3, stronger effect = lower value
Hit rate of the full screen: of about 5,500 compounds, about 2,000 (36%) were called active. About 18% were inconclusive and are not listed. Some of the results follow.
measurement.type: normalized growth
// return a plain number; no unit text

Example cases with answers are listed next.
molecule	measurement.type	reported.measurement
CNc1ccc(C(=O)CC(O)CCC(C)C2OC(=O)CC(O)CC(=O)CC(O)CC(O)CC(O)CC(O)CC3(O)CC(O)C(C(=O)OC)C(CC(OC4OC(C)C(O)C(N)C4O)/C=C/C=C/C=C/C=C/C=C/C=C/C=C/C2C)O3)cc1 (stereo not given)	normalized growth	0.12
NC(=O)NC1NC(=O)NC1=O (stereo not given)	normalized growth	0.994
NC1(C(=O)O)CC1	normalized growth	1.02
Cc1cccc(C)c1NC(=O)C1CCCCN1C (stereo not given)	normalized growth	0.999
CC(=O)O[C@H]1CC[C@@]2(C)C(C[C@@H](OC(C)=O)[C@]3(C)C2CC[C@@]2(C)[C@H](c4ccoc4)OC(=O)[C@H]4O[C@]423)C1(C)C (stereo not given in full)	normalized growth	0.999
Cc1cc(CC(=O)O)n(C)c1C(=O)c1ccc(Cl)cc1	normalized growth	0.994

Qu. Could you share which normalized growth value was measured for C[C@]12CCC3c4ccc(OC(=O)CCC(=O)O)cc4CCC3C1CCC2=O (stereo not given in full) ?
Ans. 0.879

Qu. Then C[C@]12CCC3c4ccc(OC(=O)c5ccccc5)cc4CCC3C1CCC2=O (stereo not given in full) ?
Ans. 1

Qu. Then O=c1[nH]c(=O)n(C2C[C@H](O)[C@@H](CO)O2)cc1C(F)(F)F (stereo not given in full) ?
Ans. 0.986

Qu. Then O=C1CCCCC/C=C/CCCCCCCCO1 ?
Ans. 0.985

Qu. Then Clc1ccc(CSC(Cn2ccnc2)c2ccc(Cl)cc2Cl)cc1 (stereo not given) ?
Ans. 0.047
